Where these numbers come from: the supplement of paper PMC9170038

apparent KD of MS2 coat protein for assorted sequences
Tested on: MS2 coat protein
Assay: apparent KD of MS2 coat protein; designed switch direction (-1 OFF switch, 1 ON switch): -1; higher = weaker reporter binding
Conditions: input ligand: none
# output: bare number, implied unit nM

See these solved cases before continuing.
- sequence.string: "CUAGAUCUUCGGAUCUAGUACAUGAGGAUCACCCAUGUGACGAGUAGAUCCUCAAACAAGCUUUUUGCUCGUCUUAU [Sensor v3 - Turn-off variant 1 - 20] (Eterna round: R96, puzzle: Sensor v3, turn-off variant 1)"
  apparent KD of MS2 coat protein (nM): 194
- sequence.string: "ACAUGAGGAUCACCCAUGUCAGGUGGGUCCUCUCCGGCUGUUGAGGAUAUAGUCCGGUAUCCGCGCUAGAAGGUGAGGGCUGGC [Aenatbe mod 16] (Eterna round: R96, puzzle: Exclusion NG 3)"
  apparent KD of MS2 coat protein (nM): 38.4
- sequence.string: "AAUGUCCAACGAGGAUAUGGGAAAGGAAGUGUACCAGAAGGCGUACGGACAUGAGGAUCACCCAUGUCGCGCGGCGCGAUGUGG [PowerStrip EXNG 1.14] (Eterna round: R96, puzzle: Exclusion NG 1)"
  apparent KD of MS2 coat protein (nM): 52.7
- sequence.string: "CCCGGGCUUGUGAGGAUAUGCGCGCGGAAAUGUGUGUAGAAGGCACAUGAGGAUCACCCAUGUAAGGGCCCGGG [-32.4, -30.4 kcal, A 23%, 6-0] (Eterna round: R97, puzzle: Brourd's mod of Exclusion 4)"
  apparent KD of MS2 coat protein (nM): 148
- sequence.string: "AGUUGGCGAGGAUAUACAUGAGGAUCACCCAUGUGAGAGAUACGAGUGAGGUCGAUUAGUAGAAGGCGCUGACA [Mat X3R4 m14] (Eterna round: R97, puzzle: Exclusion 3)"
  apparent KD of MS2 coat protein (nM): 161

For reference, reported apparent KD of MS2 coat protein for GUUAACGAUGAGGAUAUAUGAUAUCAAAGCAUCAUAGAAGGCAUCACAUGAGGAUCACCCAUGUGAUCUUCUUG [Mat - Exclusion 6 - JL Mod - D27] (Eterna round: R97, puzzle: Exclusion 6) stands at 29.4

Entry UCCUGACAUGAGGAUCACCCAUGUGAGGAUAUGUGGUUCGGGUCAACUCCCGUUCCGUGCAGAAGGCACAGGGC [EX1 A.29] (Eterna round: R97, puzzle: Exclusion 1) — recorded apparent KD of MS2 coat protein = 16.2

The sequence listed as GCAGGUUAAGUCAGGAUAUACCUAUGGAUACAUAGGUAGAAGGGACAUGAGGAUCACCCAUGUUUCUCAUCUGC [Mod of Eli 2 - Jieux - Brourd's mod of Exclusion 4] (Eterna round: R97, puzzle: Brourd's mod of Exclusion 4) shows apparent KD of MS2 coat protein equal to 21.7

Lab note: measured apparent KD of MS2 coat protein of CUCGUGUGAGGAUAUUCACACCCGUCAAAACAACGGACAAAGAAGAAGGCACAUGAGGAUCACCCAUGUAAAGA [Usenisor] (Eterna round: R97, puzzle: Exclusion 4) was 106
